Field: RUmax. Provide a value for each of the compounds that follow.
biological target: Major prion protein (Homo sapiens) (UniProt P04156); experiment: Binding affinity to human prion protein by surface plasmon resonance assay
State the answer as a number, implicitly in %.

Prompt: Give the measured RUmax for N#Cc1c(N)nc(Sc2ccccc2O)c(C#N)c1-c1ccc2c(c1)OCCO2
Response: 13.6

Prompt: Give the measured RUmax for N#Cc1c(N)nc(Sc2cccc(Cl)c2)c(C#N)c1-c1ccc2c(c1)OCO2
Response: 78.6

Prompt: Give the measured RUmax for N#Cc1c(N)nc(Sc2ccccc2O)c(C#N)c1-c1ccc(Cl)cc1
Response: 9.1

* * *

target: Major prion protein (Mus musculus); experiment: Binding affinity to mouse prion protein by surface plasmon resonance assay
quantity: RUmax (%)
State the answer as a number, implicitly in %.

Prompt: Give the measured RUmax for COC(=O)c1ccc(-c2c(C#N)c(N)nc(Sc3cccc(O)c3)c2C#N)cc1
Response: 0

Prompt: Give the measured RUmax for N#Cc1c(N)nc(Sc2ccccc2)c(C#N)c1-c1ccc2c(c1)OCCO2
Response: 0

Prompt: Give the measured RUmax for COC(=O)c1ccc(-c2c(C#N)c(N)nc(SCc3ccccc3)c2C#N)cc1
Response: 0

Prompt: Give the measured RUmax for COC(=O)c1ccc(-c2c(C#N)c(N)nc(Sc3ccc(Cl)cc3)c2C#N)cc1
Response: 2.4

Prompt: Give the measured RUmax for N#Cc1c(N)nc(Sc2ccc(Cl)cc2)c(C#N)c1-c1ccc(Cl)cc1
Response: 1.6
